This collection of values is drawn from paper PMC4336329.

Target desc: human ether-à-go-go-related gene (hERG) potassium channel (human)
Protocol text: primary screen, population patch clamp on CHO cells stably expressing hERG; higher = less effect of the substance
Hit rate of the full screen: of about 310,000 compounds, about 14,000 (4.5%) showed an effect of 50% or more. Effects have a minus sign here. The full list was thinned out, with strong results kept by preference.
Reported endpoint: hERG current change (%, negative = inhibition) at 10uM (%)
Please reply with the bare figure in % and do not write the unit itself.

molecule=CN(c1ccccc1)S(=O)(=O)c1ccc(Cl)c(C(=O)NC2=NCCS2)c1 reported_value=9.14
molecule="CC(NC(=O)c1ccc(CS(C)(=O)=O)cc1)c1cccc2ccccc12 (stereo not shown)" reported_value=10.1
molecule="CCOc1ccc(N2C(=O)c3ccc(C(=O)OCC(=O)N(CC)C4CCS(=O)(=O)C4)cc3C2=O)cc1 (stereo not shown)" reported_value=-22.3

Recorded result, O=C1NC(=O)N(c2ccccc2)C1=O , hERG current change (%, negative = inhibition) at 10uM: 19.9

###

Target desc: human ether-à-go-go-related gene (hERG) potassium channel (human)
Protocol text: primary screen, population patch clamp on CHO cells stably expressing hERG; higher = less effect of the substance
Screen size: about 310,000 compounds; about 14,000 (4.5%) showed an effect of 50% or more. Effects have a minus sign here. For the sample, strong results were picked, then their nearest neighbours and some compounds at random.
Given measured hERG current change (%, negative = inhibition) at 10uM, output class 1 if it is greater than or equal to -50% and class 0 if not.

Solved entries (count: 2):
compound=O=C(COC(=O)C1=NNC(=O)CC1)NCCc1ccccc1 answer_label="class 1"
compound="COc1ccc(S(=O)(=O)N2Cc3ccccc3CC2C(=O)N2CCOCC2)cc1OC (stereo not drawn)" answer_label="class 1"

Challenge: Could you please find out whether O=C(C1Cc2ccccc2CN1S(=O)(=O)c1ccc(F)cc1)N1CCCCC1 (stereo not drawn) has hERG current change (%, negative = inhibition) at 10uM that meets -50% or exceeds it?
Response given: class 1

Challenge: Could you please find out whether COc1ccc(CSC(=N)N)cc1[N+](=O)[O-].Cl has hERG current change (%, negative = inhibition) at 10uM that meets -50% or exceeds it?
Response given: class 1

Challenge: Could you please find out whether CC1CCCN(S(=O)(=O)c2ccc3c(c2)c(=O)nc2ccc(Cl)cn23)C1 (stereo not drawn) has hERG current change (%, negative = inhibition) at 10uM that meets -50% or exceeds it?
Response given: class 1

Challenge: Could you please find out whether CCCCOc1ccc(CSC(=N)N)cc1Cl.Cl has hERG current change (%, negative = inhibition) at 10uM that meets -50% or exceeds it?
Response given: class 1

Challenge: Could you please find out whether COc1ccc(S(=O)(=O)N2Cc3ccccc3CC2C(=O)O)cc1 (stereo not drawn) has hERG current change (%, negative = inhibition) at 10uM that meets -50% or exceeds it?
Response given: class 1

Challenge: Could you please find out whether c1ccc2c(NCC3CCCO3)nc(-c3ccncc3)nc2c1 (stereo not drawn) has hERG current change (%, negative = inhibition) at 10uM that meets -50% or exceeds it?
Response given: class 1

###

Target desc: human ether-à-go-go-related gene (hERG) potassium channel (human);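 also: peak tail current of the secondary pulse compared with the same well before compound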
Protocol text: primary screen, population patch clamp on CHO cells stably expressing hERG; higher = less effect of the substance
Screen size: about 310,000 compounds; about 14,000 (4.5%) showed an effect of 50% or more. The effect is printed as a negative number. Many of the other results were omitted from the sample, so strong results are more common in it than they were.
Output schema: class label derived from hERG current change (%, negative = inhibition) at 10uM. Mapping: category 1 (below -40%), category 2 (-40% to below -10%), category 3 (-10% or more)

Solved entries (count: 6):
smiles_data=S=C(N/N=C/c1ccc2ncccc2c1)Nc1ccccc1 answer_label="category 3"
smiles_data=CCN1CCN(CCNC(=O)Nc2ccc([N+](=O)[O-])cc2)CC1 answer_label="category 2"
smiles_data=O=C(/C(C=Nc1ccc(Br)cc1)=C(/O)c1ccco1)C(F)(F)F answer_label="category 1"
smiles_data=CC(=O)Nc1ccc(OCc2cnc(Cl)s2)cc1 answer_label="category 3"
smiles_data=CCOC(=O)C1(Cc2cccc(OC)c2)CCN(Cc2ccccc2OC)CC1 answer_label="category 1"
smiles_data=O=C(c1ccc(COc2ccccc2Cl)o1)N1CCCC1 answer_label="category 2"

Challenge: // bin(item) where item = COc1ccc(/C=N/N=C/c2ccc(OC)cc2)cc1
Response given: category 3

Challenge: // bin(item) where item = O=C(/C(C=Nc1cccc(C(F)(F)F)c1)=C(/O)c1ccco1)C(F)(F)F
Response given: category 2

Challenge: // bin(item) where item = CCOC(=O)C1(CC2CC2)CCN(Cc2cn(C)c3ccccc23)CC1
Response given: category 2

Challenge: // bin(item) where item = CCCCc1ccc(NC(=O)C(=O)NCCN2CCN(Cc3ccc([N+](=O)[O-])cc3)CC2)cc1
Response given: category 1

###

Target desc: human ether-à-go-go-related gene (hERG) potassium channel (human, UniProt Q12809);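 also: peak tail current of the secondary pulse compared with the same well before compound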
Sequence (Q12809 whole entry, looked up): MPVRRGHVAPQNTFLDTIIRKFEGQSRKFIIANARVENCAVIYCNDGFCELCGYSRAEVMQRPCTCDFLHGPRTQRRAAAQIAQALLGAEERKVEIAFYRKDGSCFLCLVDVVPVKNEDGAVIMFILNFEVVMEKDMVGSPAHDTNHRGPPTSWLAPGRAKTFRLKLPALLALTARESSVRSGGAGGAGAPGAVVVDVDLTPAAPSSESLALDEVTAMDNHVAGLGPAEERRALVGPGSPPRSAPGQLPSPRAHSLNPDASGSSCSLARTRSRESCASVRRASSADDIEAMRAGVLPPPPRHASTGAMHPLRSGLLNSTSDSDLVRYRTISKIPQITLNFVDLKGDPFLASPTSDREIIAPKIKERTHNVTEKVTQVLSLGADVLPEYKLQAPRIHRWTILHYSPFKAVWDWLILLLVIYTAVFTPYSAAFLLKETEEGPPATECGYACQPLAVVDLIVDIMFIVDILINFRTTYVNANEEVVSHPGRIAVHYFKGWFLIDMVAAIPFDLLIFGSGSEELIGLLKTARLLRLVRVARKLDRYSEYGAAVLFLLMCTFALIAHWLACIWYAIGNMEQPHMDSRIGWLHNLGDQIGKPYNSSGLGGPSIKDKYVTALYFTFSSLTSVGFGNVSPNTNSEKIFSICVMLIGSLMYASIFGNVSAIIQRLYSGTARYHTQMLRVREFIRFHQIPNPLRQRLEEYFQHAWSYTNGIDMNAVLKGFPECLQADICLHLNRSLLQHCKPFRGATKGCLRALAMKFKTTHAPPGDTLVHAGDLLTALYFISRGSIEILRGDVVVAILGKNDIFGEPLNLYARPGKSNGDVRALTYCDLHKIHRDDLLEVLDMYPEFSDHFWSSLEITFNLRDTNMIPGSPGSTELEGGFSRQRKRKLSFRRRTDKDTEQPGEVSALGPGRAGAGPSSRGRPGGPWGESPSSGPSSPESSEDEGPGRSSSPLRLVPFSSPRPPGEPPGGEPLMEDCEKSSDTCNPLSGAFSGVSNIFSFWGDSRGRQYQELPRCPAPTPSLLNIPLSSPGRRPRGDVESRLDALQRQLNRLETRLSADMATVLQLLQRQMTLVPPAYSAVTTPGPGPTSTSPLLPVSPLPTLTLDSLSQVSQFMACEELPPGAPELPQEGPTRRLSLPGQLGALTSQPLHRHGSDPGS
Protocol text: primary screen, population patch clamp on CHO cells stably expressing hERG; higher = less effect of the substance
Among all 310,000 compounds or so, about 14,000 (4.5%) showed an effect of 50% or more. Effects have a minus sign here. Only a selection was taken, and strong results are over-represented in it overall.
Reported endpoint: hERG current change (%, negative = inhibition) at 10uM (%)
Please reply with the bare figure in % and do not write the unit itself.

Some entries whose results are on file:
molecule="O=C(NC1CCCN(Cc2ccc(Cl)cc2)C1)c1cccc(N2CCCC2=O)c1 (stereo not drawn)" target_desc="human ether-à-go-go-related gene (hERG) potassium channel (human, UniProt Q12809)" units_label=% reported_value=-14.8
molecule=CSc1ccc(CCNS(=O)(=O)c2c(C)[nH]c(C)c2C(=O)N2CCCCC2)cc1 target_desc="human ether-à-go-go-related gene (hERG) potassium channel (human, UniProt Q12809)" units_label=% reported_value=-15.2

Please examine the following record next.
Recorded result, CCCCn1nc(C(=O)NCC2COc3ccccc3O2)c2ccccc2c1=O (stereo not drawn) , hERG current change (%, negative = inhibition) at 10uM: -49.1

###

Target desc: human ether-à-go-go-related gene (hERG) potassium channel (human, UniProt Q12809);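 also: peak tail current of the secondary pulse compared with the same well before compound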
Protocol text: primary screen, population patch clamp on CHO cells stably expressing hERG; higher = less effect of the substance
The campaign covered roughly 310,000 compounds. About 14,000 (4.5%) showed an effect of 50% or more. The effect is printed as a negative number. For the sample, strong results were picked, then their nearest neighbours and some compounds at random.
Items are presented alongside their recorded hERG current change (%, negative = inhibition) at 10uM.
Answer by giving the amount and then stating its unit.

compound="COc1cccc(CN2CCN(Cc3cccn3-c3cccnc3)CC2CCO)c1 (stereo not shown)" target_desc="human ether-à-go-go-related gene (hERG) potassium channel (human, UniProt Q12809)" reported_value=-71.4%
compound=COc1ccccc1CNc1nc2ccccc2n1CCN1CCCCC1 target_desc="human ether-à-go-go-related gene (hERG) potassium channel (human, UniProt Q12809)" reported_value=-61.5%
compound="CC(OC(=O)CN1C(=O)NC2(CCCC2)C1=O)C(=O)Nc1cccc(Cl)c1 (stereo not shown)" target_desc="human ether-à-go-go-related gene (hERG) potassium channel (human, UniProt Q12809)" reported_value=-15.3%

Please examine the following record next.
Recorded result, Oc1ccccc1CNc1nc2ccccc2n1CCN1CCCCC1 , hERG current change (%, negative = inhibition) at 10uM: -2.31%

###

Items are presented alongside their recorded hERG current change (%, negative = inhibition) at 10uM.
Target desc: human ether-à-go-go-related gene (hERG) potassium channel (human, UniProt Q12809);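 also: peak tail current of the secondary pulse compared with the same well before compound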
Protocol text: primary screen, population patch clamp on CHO cells stably expressing hERG; higher = less effect of the substance
Among all 310,000 compounds or so, about 14,000 (4.5%) showed an effect of 50% or more. Effects have a minus sign here. Shown is part of a subset that was picked to be rich in strong results.
Answer by giving the amount and then stating its unit.

Some entries whose results are on file:
compound=COC(CNC(=O)c1ccc2c(c1)nc(C)n2-c1cccc(C)c1)OC reported_value=0.933%
compound=COc1nc(NCCN2CCOCC2)nc(Nc2ccc([N+](=O)[O-])cc2)n1 reported_value=-50.7%

The recorded hERG current change (%, negative = inhibition) at 10uM with human ether-à-go-go-related gene (hERG) potassium channel (human, UniProt Q12809) for Nc1ccc(Br)c[n+]1Cc1cccc2cccnc12.[Br-] was -51.6%

The recorded hERG current change (%, negative = inhibition) at 10uM with human ether-à-go-go-related gene (hERG) potassium channel (human, UniProt Q12809) for OCc1ccccc1OCCCOc1cccc2cccnc12 was -3.4%

The recorded hERG current change (%, negative = inhibition) at 10uM with human ether-à-go-go-related gene (hERG) potassium channel (human, UniProt Q12809) for O=C(NNc1cc(Cl)cc(Cl)c1)C1CCC1 was 21.9%

The recorded hERG current change (%, negative = inhibition) at 10uM with human ether-à-go-go-related gene (hERG) potassium channel (human, UniProt Q12809) for Cc1cc(C)cc(N2CC(C)Cn3c2nc2c3c(=O)[nH]c(=O)n2C)c1 (centres unmarked) was -2.03%

The recorded hERG current change (%, negative = inhibition) at 10uM with human ether-à-go-go-related gene (hERG) potassium channel (human, UniProt Q12809) for COc1cc(/C=C/C(=O)NC(C)C2CC3CCC2C3)cc(OC)c1OC (centres unmarked) was 10.6%

The recorded hERG current change (%, negative = inhibition) at 10uM with human ether-à-go-go-related gene (hERG) potassium channel (human, UniProt Q12809) for Cn1c(O)c(N=NC(=O)Cn2c(C(F)(F)F)nc3ccccc32)c2ccccc21 was 6.02%
